Please respond with reported koff for every item in the list.
Molecular target: T1, cynomolgus Trop-2-His protein (cynomolgus, UniProt P09758 27-274 (human entry))
T1 construct: also called cynmolgus Trop-His; Kactus Cat #TRP-CM121; not shown: His tag
T1 chain: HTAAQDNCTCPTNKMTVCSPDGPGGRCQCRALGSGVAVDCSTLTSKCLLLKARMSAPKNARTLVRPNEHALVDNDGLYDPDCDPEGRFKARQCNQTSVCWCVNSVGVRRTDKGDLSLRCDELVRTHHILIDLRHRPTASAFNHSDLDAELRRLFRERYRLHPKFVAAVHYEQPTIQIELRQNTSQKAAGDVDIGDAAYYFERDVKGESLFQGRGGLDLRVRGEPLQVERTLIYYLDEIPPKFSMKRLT
Assay: BLI (Gator Prime), LEM supernatant Ab on HFC probe
Procedure: After three times of regeneration and neutralization of HFC probe (Gator, Cat #160003), LEM transfection supernatant samples to be tested in K buffer was diluted 1:1 in K buffer and immobilized onto HFC probe. […] The association and dissociation of human or cynomolgus Trop-2-His antigen from antibody was measured on BLI machine Gator Prime. Affinity was calculated using Gator Bio analysis software. Blank control was used for reference subtraction. […]
# answer = value followed by unit

Would you mind telling me what koff value was observed for 73C2 (antibody, V domains shown, Rabbit-derived clone; LEM construct: VH + rabbit IgG CH1 + human IgG1 CH2-CH3) VH: QSLEESGGGLVKPGGTLTLTCTVSGFDFSNYAVTWVRQAPGEGLEYIGFVGIYGDFYYANWAKGRFTISKTSSTTVTLQMPSLTVADTATYFCARGGLWTGNSYFDLWGPGTLVTVSS VL: YDMTQTPASVEVAVGGTVTINCQASESINRYLAWYQQKRGQPPKPLIYRAATLASGVPSRFKGSGSGTEYTLTISDLECADAATYYCQQGYGYSTVGNAFGGGTEVVVK ?
0.0017 s⁻¹

Would you mind telling me what koff value was observed for 74F11/15F5 (antibody, human IgG1, V domains shown, LEM construct: VH + rabbit IgG CH1 + human IgG1 CH2-CH3) VH: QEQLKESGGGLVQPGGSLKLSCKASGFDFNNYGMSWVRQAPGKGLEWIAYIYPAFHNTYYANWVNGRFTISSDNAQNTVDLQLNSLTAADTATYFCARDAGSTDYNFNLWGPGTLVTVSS VL: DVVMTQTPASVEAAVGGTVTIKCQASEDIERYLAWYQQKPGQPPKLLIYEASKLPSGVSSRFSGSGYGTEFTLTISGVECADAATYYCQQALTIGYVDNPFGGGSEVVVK ?
0.00017 s⁻¹

Reference for the values: patent US20250206841A1
